test system: Clostridioides difficile; test: Ratio of MIC for demethylvancomycin to compound MIC for Clostridium difficile ATCC 700057 after 16 hrs by two-fold serial dilution method; type: functional
Readout Name: Ratio
Answers are plain numbers.

// known answers, use as guide
# Compound, Measured Target, Ratio
measured = [
    ("CC(C)C[C@@H](N)C(=O)N[C@H]1C(=O)N[C@@H](CC(N)=O)C(=O)N[C@H]2C(=O)N[C@H]3C(=O)N[C@H](C(=O)N[C@H](C(=O)O)c4cc(O)cc(O)c4-c4cc3ccc4O)[C@H](O)c3ccc(c(Cl)c3)Oc3cc2cc(c3O[C@@H]2O[C@H](CO)[C@@H](O)[C@H](O)[C@H]2O[C@H]2C[C@](C)(NCc3ccc4ccccc4c3)[C@H](O)[C@H](C)O2)Oc2ccc(cc2Cl)[C@H]1O", "Clostridioides difficile", 2),
    ("CC(C)C[C@@H](N)C(=O)N[C@H]1C(=O)N[C@@H](CC(N)=O)C(=O)N[C@H]2C(=O)N[C@H]3C(=O)N[C@H](C(=O)N[C@H](C(=O)O)c4cc(O)cc(O)c4-c4cc3ccc4O)[C@H](O)c3ccc(c(Cl)c3)Oc3cc2cc(c3O[C@@H]2O[C@H](CO)[C@@H](O)[C@H](O)[C@H]2O[C@H]2C[C@](C)(NCCC(C)CC(C)(C)C)[C@H](O)[C@H](C)O2)Oc2ccc(cc2Cl)[C@H]1O (stereo partly drawn)", "Clostridioides difficile", 2),
]

// moving on: another record for Ratio
Query: Assign Ratio to the following record: CC(C)C[C@@H](N)C(=O)N[C@H]1C(=O)N[C@@H](CC(N)=O)C(=O)N[C@H]2C(=O)N[C@H]3C(=O)N[C@H](C(=O)N[C@H](C(=O)O)c4cc(O)cc(O)c4-c4cc3ccc4O)[C@H](O)c3ccc(c(Cl)c3)Oc3cc2cc(c3O[C@@H]2O[C@H](CO)[C@@H](O)[C@H](O)[C@H]2O[C@H]2C[C@](C)(NCc3c4ccccc4cc4ccccc34)[C@H](O)[C@H](C)O2)Oc2ccc(cc2Cl)[C@H]1O
Response: 2

====

Hi there, I'd appreciate the recorded MIC for every entry that follows.
system: Clostridioides difficile; experiment: Antibacterial activity against Clostridium difficile ATCC 700057 after 16 hrs by two-fold serial dilution method; assay type: functional; details: ATCC 700057, 16 h
Numbers only, in µg/mL.

# Input Smiles, MIC (µg/mL)
rows = [
    ("CC(C)C[C@@H](N)C(=O)N[C@H]1C(=O)N[C@@H](CC(N)=O)C(=O)N[C@H]2C(=O)N[C@H]3C(=O)N[C@H](C(=O)N[C@H](C(=O)O)c4cc(O)cc(O)c4-c4cc3ccc4O)[C@H](O)c3ccc(c(Cl)c3)Oc3cc2cc(c3O[C@@H]2O[C@H](CO)[C@@H](O)[C@H](O)[C@H]2O[C@H]2C[C@](C)(NCc3ccc(Cl)cc3)[C@H](O)[C@H](C)O2)Oc2ccc(cc2Cl)[C@H]1O", 0.5),
    ("CC(C)C[C@@H](N)C(=O)N[C@H]1C(=O)N[C@@H](CC(N)=O)C(=O)N[C@H]2C(=O)N[C@H]3C(=O)N[C@H](C(=O)N[C@H](C(=O)O)c4cc(O)cc(O)c4-c4cc3ccc4O)[C@H](O)c3ccc(c(Cl)c3)Oc3cc2cc(c3O[C@@H]2O[C@H](CO)[C@@H](O)[C@H](O)[C@H]2O[C@H]2C[C@](C)(NCc3c4ccccc4cc4ccccc34)[C@H](O)[C@H](C)O2)Oc2ccc(cc2Cl)[C@H]1O", 0.5),
]

Next item in the queue.
Query: Quick one: give measured MIC for CN[C@H](CC(C)C)C(=O)N[C@H]1C(=O)N[C@@H](CC(N)=O)C(=O)N[C@H]2C(=O)N[C@H]3C(=O)N[C@H](C(=O)N[C@H](C(=O)O)c4cc(O)cc(O)c4-c4cc3ccc4O)[C@H](O)c3ccc(c(Cl)c3)Oc3cc2cc(c3O[C@@H]2O[C@H](CO)[C@@H](O)[C@H](O)[C@H]2O[C@H]2C[C@](C)(N)[C@H](O)[C@H](C)O2)Oc2ccc(cc2Cl)[C@H]1O
Response: 0.5

====

test system: Enterococcus faecalis; experiment: Antibacterial activity against Enterococcus faecalis ATCC 700802 after 16 hrs by two-fold serial dilution method; format: functional; conditions: ATCC 700802, 16 h
Readout Name: MIC (µg/mL)
Answers are plain numbers, in µg/mL.

Answered cases to consult:
# Input Smiles, Measured Target, Reading
rows = [
    ("CC(C)C[C@@H](N)C(=O)N[C@H]1C(=O)N[C@@H](CC(N)=O)C(=O)N[C@H]2C(=O)N[C@H]3C(=O)N[C@H](C(=O)N[C@H](C(=O)O)c4cc(O)cc(O)c4-c4cc3ccc4O)[C@H](O)c3ccc(c(Cl)c3)Oc3cc2cc(c3O[C@@H]2O[C@H](CO)[C@@H](O)[C@H](O)[C@H]2O[C@H]2C[C@](C)(NCc3ccc(Cl)cc3)[C@H](O)[C@H](C)O2)Oc2ccc(cc2Cl)[C@H]1O", "Enterococcus faecalis", 16),
    ("CC(C)C[C@@H](N)C(=O)N[C@H]1C(=O)N[C@@H](CC(N)=O)C(=O)N[C@H]2C(=O)N[C@H]3C(=O)N[C@H](C(=O)N[C@H](C(=O)O)c4cc(O)cc(O)c4-c4cc3ccc4O)[C@H](O)c3ccc(c(Cl)c3)Oc3cc2cc(c3O[C@@H]2O[C@H](CO)[C@@H](O)[C@H](O)[C@H]2O[C@H]2C[C@](C)(NCc3ccc(Br)cc3)[C@H](O)[C@H](C)O2)Oc2ccc(cc2Cl)[C@H]1O", "Enterococcus faecalis", 8),
    ("CCC(CC)CN[C@@]1(C)C[C@H](O[C@H]2[C@H](Oc3c4cc5cc3Oc3ccc(cc3Cl)[C@@H](O)[C@@H](NC(=O)[C@H](N)CC(C)C)C(=O)N[C@@H](CC(N)=O)C(=O)N[C@H]5C(=O)N[C@H]3C(=O)N[C@H](C(=O)N[C@H](C(=O)O)c5cc(O)cc(O)c5-c5cc3ccc5O)[C@H](O)c3ccc(c(Cl)c3)O4)O[C@H](CO)[C@@H](O)[C@@H]2O)O[C@@H](C)[C@H]1O", "Enterococcus faecalis", 32),
]

In the following, a different compound is considered.
Query: Give the reported MIC for this compound. CC(C)C[C@@H](N)C(=O)N[C@H]1C(=O)N[C@@H](CC(N)=O)C(=O)N[C@H]2C(=O)N[C@H]3C(=O)N[C@H](C(=O)N[C@H](C(=O)O)c4cc(O)cc(O)c4-c4cc3ccc4O)[C@H](O)c3ccc(c(Cl)c3)Oc3cc2cc(c3O[C@@H]2O[C@H](CO)[C@@H](O)[C@H](O)[C@H]2O[C@H]2C[C@](C)(NCC3CCCCC3)[C@H](O)[C@H](C)O2)Oc2ccc(cc2Cl)[C@H]1O
Response: 16

====

test system: Clostridioides difficile; assay: Antibacterial activity against Clostridium difficile ATCC 700057 after 16 hrs by two-fold serial dilution method; format: functional; settings: ATCC 700057, 16 h
Readout Name: MIC (µg/mL)
One number for each entry, in µg/mL.

# Compound, Measured Target, MIC (µg/mL)
records = [
    ("CC(C)C[C@@H](N)C(=O)N[C@@H]1C(=O)N[C@@H](CC(N)=O)C(=O)N[C@H]2C(=O)N[C@H]3C(=O)N[C@H](C(=O)N[C@H](C(=O)O)c4cc(O)cc(O)c4-c4cc3ccc4O)[C@H](O)c3ccc(c(Cl)c3)Oc3cc2cc(c3O[C@@H]2O[C@H](CO)[C@@H](O)[C@H](O)[C@H]2O[C@H]2C[C@](C)(N)C(O)[C@H](C)O2)Oc2ccc(cc2Cl)[C@H]1O (some centres not stated)", "Clostridioides difficile", 0.5),
]

Next item in the queue.
Query: Read the entry CC(C)C[C@@H](N)C(=O)N[C@H]1C(=O)N[C@@H](CC(N)=O)C(=O)N[C@H]2C(=O)N[C@H]3C(=O)N[C@H](C(=O)N[C@H](C(=O)O)c4cc(O)cc(O)c4-c4cc3ccc4O)[C@H](O)c3ccc(c(Cl)c3)Oc3cc2cc(c3O[C@@H]2O[C@H](CO)[C@@H](O)[C@H](O)[C@H]2O[C@H]2C[C@](C)(NCc3cc4ccccc4o3)[C@H](O)[C@H](C)O2)Oc2ccc(cc2Cl)[C@H]1O and write its reported MIC.
Response: 0.5

====

tested on: Clostridioides difficile; assay: Antibacterial activity against Clostridium difficile ATCC 700057 after 16 hrs by two-fold serial dilution method; assay type: functional; settings: ATCC 700057, 16 h
Hi there, I'd appreciate the recorded MIC for every entry that follows.
Give bare numbers, in µg/mL.

# Input Smiles, Measured Target, Readout Name, Reading
measured = [
    ("CC(C)C[C@@H](N)C(=O)N[C@H]1C(=O)N[C@@H](CC(N)=O)C(=O)N[C@H]2C(=O)N[C@H]3C(=O)N[C@H](C(=O)N[C@H](C(=O)O)c4cc(O)cc(O)c4-c4cc3ccc4O)[C@H](O)c3ccc(c(Cl)c3)Oc3cc2cc(c3O[C@@H]2O[C@H](CO)[C@@H](O)[C@H](O)[C@H]2O[C@H]2C[C@](C)(NCc3ccc(F)cc3)[C@H](O)[C@H](C)O2)Oc2ccc(cc2Cl)[C@H]1O", "Clostridioides difficile", "MIC", 0.5),
]

For every record below, what is its MIC?
1. CC(C)=CCC/C(C)=C/CN[C@@]1(C)C[C@H](O[C@H]2[C@H](Oc3c4cc5cc3Oc3ccc(cc3Cl)[C@@H](O)[C@@H](NC(=O)[C@H](N)CC(C)C)C(=O)N[C@@H](CC(N)=O)C(=O)N[C@H]5C(=O)N[C@H]3C(=O)N[C@H](C(=O)N[C@H](C(=O)O)c5cc(O)cc(O)c5-c5cc3ccc5O)[C@H](O)c3ccc(c(Cl)c3)O4)O[C@H](CO)[C@@H](O)[C@@H]2O)O[C@@H](C)[C@H]1O
2. CC(C)C[C@@H](N)C(=O)N[C@H]1C(=O)N[C@@H](CC(N)=O)C(=O)N[C@H]2C(=O)N[C@H]3C(=O)N[C@H](C(=O)N[C@H](C(=O)O)c4cc(O)cc(O)c4-c4cc3ccc4O)[C@H](O)c3ccc(c(Cl)c3)Oc3cc2cc(c3O[C@@H]2O[C@H](CO)[C@@H](O)[C@H](O)[C@H]2O[C@H]2C[C@](C)(NCc3ccco3)[C@H](O)[C@H](C)O2)Oc2ccc(cc2Cl)[C@H]1O
3. CC(C)CCN[C@@]1(C)C[C@H](O[C@H]2[C@H](Oc3c4cc5cc3Oc3ccc(cc3Cl)[C@@H](O)[C@@H](NC(=O)[C@H](N)CC(C)C)C(=O)N[C@@H](CC(N)=O)C(=O)N[C@H]5C(=O)N[C@H]3C(=O)N[C@H](C(=O)N[C@H](C(=O)O)c5cc(O)cc(O)c5-c5cc3ccc5O)[C@H](O)c3ccc(c(Cl)c3)O4)O[C@H](CO)[C@@H](O)[C@@H]2O)O[C@@H](C)[C@H]1O
4. CC(C)C[C@@H](N)C(=O)N[C@H]1C(=O)N[C@@H](CC(N)=O)C(=O)N[C@H]2C(=O)N[C@H]3C(=O)N[C@H](C(=O)N[C@H](C(=O)O)c4cc(O)cc(O)c4-c4cc3ccc4O)[C@H](O)c3ccc(c(Cl)c3)Oc3cc2cc(c3O[C@@H]2O[C@H](CO)[C@@H](O)[C@H](O)[C@H]2O[C@H]2C[C@](C)(NCc3ccc4ccccc4c3)[C@H](O)[C@H](C)O2)Oc2ccc(cc2Cl)[C@H]1O

Response:
1. 0.5
2. 0.5
3. 1
4. 0.25
